- Experiment Description: Acute toxicity, single oral administration to mice
- Test Context: mouse, in vivo, single oral administration (p.o.)
Quantity: LD50 (mg/kg)
The response must be a number in mg/kg with no trailing unit.

Could you share which LD50 value was measured for CCN1C(=O)CNC(c2ccccc2F)c2cc(C(C)N(C)C)ccc21 (stereo not drawn) ?
500

Record: CCN1C(=O)CN=C(c2ccccc2F)c2cc(C(C)OCOC)ccc21 (stereo not drawn)
500

Record: CCN1C(=O)CNC(c2ccccc2F)c2cc(C(C)NCCO)ccc21 (stereo not drawn)
4000

Consider the record given below.
Could you share which LD50 value was measured for CC1N=C(c2ccccc2F)c2cc(C(C)N)ccc2N(C)C1=O (stereo not drawn) ?
625

---

- Tested on: aldosterone
- Experiment Description: Aldosterone-antagonistic activity in adrenalectomised rats (urine volume, sodium and potassium excretion)
- Format: in vivo, Female Holtzmann rats
- Test Context: 1 mg/kg p.o., 30 min before aldosterone s.c., urine collected 3 hours, vs animals treated only with aldosterone
Quantity: Volume (urine volume) in %, based on control animals (%)
The response must be a number in % with no trailing unit.

These recorded examples may help you get a feel for the data.
Could you share which Volume (urine volume) in %, based on control animals value was measured for CCN1C(=O)CNC(c2ccccc2F)c2cc(C(C)N(C)C)ccc21 (stereo not drawn) ?
147

Record: CCN1C(=O)CN=C(c2ccccc2F)c2cc(C(C)OCOC)ccc21 (stereo not drawn)
138

Record: CN1C(=O)CN=C(c2ccccc2)c2cc(CNC(=O)NCCO)ccc21
130

Record: CCN1C(=O)CNC(c2ccccc2F)c2cc(C(C)=NO)ccc21 (stereo not drawn)
157

Record: CC1N=C(c2ccccc2F)c2cc(C(C)N)ccc2N(C)C1=O (stereo not drawn)
169

Consider the record given below.
Could you share which Volume (urine volume) in %, based on control animals value was measured for CCN1C(=O)CNC(c2ccccc2F)c2cc(C(C)NCCO)ccc21 (stereo not drawn) ?
150
